The measured values listed here are drawn from patent US20130195872A1.

Target: T1, mouse IL-17F homodimer (mouse, UniProt Q7TNI7 29-161, limits assumed)
T1 sequence (looked up): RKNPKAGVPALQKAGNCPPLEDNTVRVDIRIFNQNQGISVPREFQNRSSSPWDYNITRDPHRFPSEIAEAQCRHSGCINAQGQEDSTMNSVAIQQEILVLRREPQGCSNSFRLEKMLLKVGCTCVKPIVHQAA
Assay: cell-based or functional assay
RECORDED ENDPOINT: IC50, IL-6 secretion by MEF cells, cytokine at 50 ng/ml (nM)

[[record]]
binder = "12B12 antibody (antibody, IgG4, V domains shown) VH: QVQLVQSGAEVKKPGSSVKVSCKASGGTLSSYAFSWVRQAPGQGLEWMGGIIPFFGTVNYAQKFQGRVTITADESTNTAYMELSSLRSEDTAVYYCARDRDYYGLGSPLHYYGLDVWGQGTTVTVSS VL: EIVLTQSPDFQSVTPKEKVTITCRASQSIGSSLHWYQQKPDQSPKLLIKYASQSFSGVPSRFSGSGSGTDFTLTINSLEAEDAAAYYCHQSSSLPWTFGQGTKVEIK"
reported_measurement = 4.2

[[record]]
binder = "15B7 antibody (antibody, IgG4, V domains shown) VH: QVQLVQSGAEVKKPGSSVKVSCKASGGTLSSYAFSWVRQAPGQGLEWMGGIIPFFGTAHYAQKFQGRVTITADESTNTAYMELSSLRSEDTAVYYCARDRDYYGSGSPFHFSGLDVWGQGTTVTVSS VL: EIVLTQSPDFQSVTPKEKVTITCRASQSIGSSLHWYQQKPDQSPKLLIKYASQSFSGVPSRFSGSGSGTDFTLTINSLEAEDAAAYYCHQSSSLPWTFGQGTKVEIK"
reported_measurement = 22

[[record]]
binder = "39F12 antibody (antibody, IgG4, V domains shown, also called Mab06a; 39F12 IgG4) VH: QVQLVQSGAEVKKPGSSVKVSCKASGGTLSSYAFSWVRQAPGQGLEWMGGIIPFFGTTNYAQKFQGRVIITADESTNTAYMELSGLRSEDTAVYYCARDRDYYGLGSPFYYYGMDVWGQGTTVTVSS VL: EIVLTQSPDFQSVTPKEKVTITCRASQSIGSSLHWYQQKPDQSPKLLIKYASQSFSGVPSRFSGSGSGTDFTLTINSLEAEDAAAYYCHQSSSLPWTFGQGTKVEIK"
reported_measurement = 4

[[record]]
binder = "39F12A antibody (antibody, V domains shown) VH: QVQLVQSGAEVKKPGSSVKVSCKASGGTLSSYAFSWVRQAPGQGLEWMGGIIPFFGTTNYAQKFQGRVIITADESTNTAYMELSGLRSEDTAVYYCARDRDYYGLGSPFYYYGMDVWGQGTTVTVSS VL: EIVLTQSPDFQSVTPKEKVTITCRASQSIGSSLHWYQQKPDQSPKLLIKYASQSFSGVPSRFSGSGSGTDFTLTINSLEAEDAATYYCHQSSSLPWTFGQGTKVEIK"
reported_measurement = 6.2

